Cited source for all entries: the supplement of paper PMC11246515

# TEST: total protein half-life in vivo (active degradation + dilution); higher = more stable protein
# RECORDED CONDITIONS: wild type E. coli NCM3722; growth: N-lim chemostat; doubling time 6 h
ENDPOINT NAME: total protein half-life in vivo (h)

# SEQUENCE TEXT, VAL
data = [
    ("MKKRVYLIAAVVSGALAVSGCTTNPYTGEREAGKSAIGAGLGSLVGAGIGALSSSKKDRGKGALIGAAAGAALGGGVGYYMDVQEAKLRDKMRGTGVSVTRSGDNIILNMPNNVTFDSSSATLKPAGANTLTGVAMVLKEYPKTAVNVIGYTDSTGGHDLNMRLSQQRADSVASALITQGVDASRIRTQGLGPANPIASNSTAEGKAQNRRVEITLSPL", 5.81),
    ("MKTLGEFIVEKQHEFSHATGELTALLSAIKLGAKIIHRDINKAGLVDILGASGAENVQGEVQQKLDLFANEKLKAALKARDIVAGIASEEEDEIVVFEGCEHAKYVVLMDPLDGSSNIDVNVSVGTIFSIYRRVTPVGTPVTEEDFLQPGNKQVAAGYVVYGSSTMLVYTTGCGVHAFTYDPSLGVFCLCQERMRFPEKGKTYSINEGNYIKFPNGVKKYIKFCQEEDKSTNRPYTSRYIGSLVADFHRNLLKGGIYLYPSTASHPDGKLRLLYECNPMAFLAEQAGGKASDGKERILDIIPETLHQRRSFFVGNDHMVEDVERFIREFPDA [P0A993]", 3.19),
    ("MVSRYVPDMGDLIWVDFDPTKGSEQAGHRPAVVLSPFMYNNKTGMCLCVPCTTQSKGYPFEVVLSGQERDGVALADQVKSIAWRARGATKKGTVAPEELQLIKAKINVLIG [P0AE70]", 4.02),
]
